test: yeast growth modulation, basal conditions, primary screen, YJM789 clinical isolate, OD600, 24 h (AID 1089);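 also: growth of clinical yeast isolate S. cerevisiae YJM 789 seeded 1000 cells per well; test concentration not given here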
conditionNotes: S. cerevisiae YJM789 growth, higher = more signal, called active from +8 up or from −8 down
The source made the active and inactive calls.
measureName: z-score

Some solved entries appear below for comparison.
molecule: COC(=O)[C@@]1(CCC(=O)OC(C)(C)C)N=C(c2ccc(OCCCO)cc2)O[C@H]1c1ccccc1CN=[N+]=[N-]
measureName: z-score
reading: 0.0206 (inactive)

molecule: CC(C)c1ccc(NN2C(C(O)C(C)C)C=CC3C(=O)N(c4ccccc4)C(=O)C32)cc1 (stereo not given)
measureName: z-score
reading: 1.39 (inactive)

molecule: C=CCN1C(=O)[C@]2(O[C@H](CCO)[C@@H]([Si](C)(C)c3ccc(OC)cc3)[C@@H]2C)c2ccccc21
measureName: z-score
reading: -2.75 (inactive)

So what does the record say about z-score for C=CCC(OC(C)=O)[C@@H]1[C@@H](N(Cc2cccc3ccccc23)C(=O)c2ccc(C)cc2)c2cc(OCCCO)ccc2N1C(=O)c1ccc2ccccc2n1 (stereo not given in full) ?
-2.04 (inactive)

====

test: small-molecule microarray binders of probe aShh, primary screen, biochemical, biotinylated probe, 635/667 nm fluorescence (AID 1114);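 also: probe is biotin-labelled aShh protein from a stem cell growth factor screen; measures binding of labelled protein to compounds printed on the slide; score merges feature fluorescence at 667 nm with signal-to-noise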
conditionNotes: higher = more signal
composite z-score below -0.08 gives f; composite z-score at or above it gives t.

A selection of reference data follows.
compound: C=C(CCCC)/C(=C/C[C@H](OC(C)=O)c1cccc(OCCO)c1)c1cc(C(=O)OC)ccc1OC
assignedClass: t
//
compound: O=C1NC(=O)C2C1C=CC(C(O)c1cccc(O)c1)N2Nc1ccc(Cl)cc1Cl (configuration not stated)
assignedClass: f
//
compound: COCCOC(=O)N1C(=O)[C@@]2(c3cc(C#CC4=CCCCC4)ccc31)[C@H](c1ccccc1OCCO)N1[C@H](c3ccccc3)[C@H](c3ccccc3)OC(=O)[C@H]1[C@@H]2C(N)=O
assignedClass: f
//
compound: [N-]=[N+]=NCc1ccccc1[C@H]1OC(c2ccc(OCCCO)cc2)=N[C@@]1(Cc1ccccc1)C(=O)N1CCOCC1
assignedClass: f
//
compound: C[N+](C)(C)CCCC[C@@H]1NC(=O)[C@H]2C[C@@H](C(=O)NCCCCCNC(=O)CS)[C@@H](c3ccc(O)cc3)N2C1=O
assignedClass: t

Kindly review the next compound as well.
In plain terms: is recorded composite z-score at least -0.08 for O=C1C2C=CC(C(O)c3ccc([N+](=O)[O-])cc3)N(Nc3ccccc3)C2C(=O)N1c1ccccc1 (configuration not stated) ?
t

====

The compounds listed here are annotated with their z-score.
test: P. aeruginosa biofilm formation inhibitors, primary screen, strain PAO1, LB-PBS medium, absorbance 600 nm (AID 1176); also: test concentration not given here
conditionNotes: P. aeruginosa PAO1 growth/biofilm, A600, 12 h; higher = more signal
The source made the active and inactive calls. The rule behind the calls is not given here.

Below, each entry is followed by its recorded z-score result.
compound: CC(C)C(=C=CC[C@@H](O)c1cccc(OCCO)c1)CCO
z-score: 0.2 (inactive)
//
compound: [N-]=[N+]=NCc1ccccc1C[C@]1(C(=O)N2CCCCC2)N=C(c2ccc(OCCCO)cc2)O[C@H]1c1ccccc1
z-score: -0.372 (inactive)
//
compound: COC(=O)c1ccc([C@H](NC(=O)c2ccccc2)[C@]2(C)C[C@H]2C2CCCCC2)cc1
z-score: 0.371 (inactive)
//
compound: COCCOC(=O)N1C(=O)[C@@]2(c3ccccc31)[C@H](C(=O)N1CCCCCCC1)[C@H]1C(=O)O[C@H](c3ccccc3)[C@H](c3ccccc3)N1[C@@H]2c1ccc(O)cc1
z-score: 1.32 (inactive)
//
compound: COC(=O)[C@@]1(Cc2ccc(F)cc2)[C@H]2c3cc(C(=O)N(C)C)n(CCN4CCOCC4)c3C[C@H]2CN1C(=O)c1ccccc1
z-score: 0.0818 (inactive)
//
compound: N#Cc1ccc(C(O)C2C=CC3C(=O)N(c4ccccc4)C(=O)C3N2Nc2ccc([N+](=O)[O-])cc2)cc1 (stereo not drawn)
z-score: 1.01 (inactive)
//
compound: C[C@H]1NC(=O)C([C@@H](C)OCc2ccccc2)NC(=O)[C@@]23C(=O)N[C@@H](Cc4ccccc4)C2[C@H](C)[C@@]2(C)O[C@H]2C3/C=C/C/C=C\CNC1=O (stereo partly drawn)
z-score: 0.13 (inactive)
//
compound: COCCCNC(=O)[C@@H]1c2ccccc2C(=O)N(C2CCCCC2)[C@H]1c1ccc(CO)cc1
z-score: 0.745 (inactive)
//
compound: C=CCC(OC(C)=O)[C@@H]1[C@@H](N(Cc2ccc(-c3ccccc3)cc2)C(=O)c2ccc(-c3ccccc3)cc2)c2cc(OCCCO)ccc2N1C(=O)c1ccc2ccccc2n1 (stereo partly drawn)
z-score: 0.149 (inactive)
//
compound: CC(C)C[C@@H]1NC(=O)[C@@]23C(=O)N[C@@H](Cc4ccccc4)C2[C@H](C)[C@@]2(C)O[C@H]2C3/C=C/C/C=C\CNC(=O)[C@@H](CC(C)C)NC1=O (stereo partly drawn)
z-score: 0.0937 (inactive)

Requested read-out: z-score. Entry: "C=CCOC(=O)[C@H]1[C@@H]2C(=O)O[C@@H](c3ccccc3)[C@@H](c3ccccc3)N2[C@@H](c2ccc(OCCOC(=O)[C@@H]3C[C@@H]4C(=O)N[C@@H](CC(C)C)C(=O)N4[C@@H]3c3ccc(O)cc3)cc2)[C@]12C(=O)Nc1ccc(I)cc12"
2.94 (inactive)

I would be grateful if you could share the reported z-score for C=CCC(OC(C)=O)[C@@H]1[C@@H](N(Cc2cc3ccccc3o2)C(=O)c2ccc(-c3ccccc3)cc2)c2cc(OCCCO)ccc2N1C(=O)c1ccc2ccccc2n1 (stereo partly drawn) .
0.35 (inactive)

Can you look up the measured z-score of "[N-]=[N+]=NCc1ccccc1C[C@]1(C(=O)N2CCOCC2)N=C(c2ccc(OCCCO)cc2)O[C@H]1c1ccccc1CN=[N+]=[N-]" for me?
0.948 (inactive)

====

test: inhibitors of hydroxyurea-induced Chk1 phosphorylation, primary screen, imaging, HeLa, phospho-Chk1 nuclear intensity (AID 1187); also: test concentration not given here
conditionNotes: hydroxyurea-induced phospho-Chk1 immunofluorescence imaging, higher = more signal
Could you label it 1 if measured z-score is 0.02 or higher, and -1 otherwise?

Solved entries:
molecule: COc1ccc(C#Cc2ccc3c(c2)[C@]2(C(=O)N3)[C@H](c3ccc(OCCO)cc3)N3[C@H](c4ccccc4)[C@H](c4ccccc4)OC(=O)[C@H]3[C@@H]2C(=O)O)cc1
assignedClass: 1
--
molecule: COCC(=C=CC[C@@H](O)c1cccc(OCCO)c1)C[C@@H](O)COCc1ccccc1
assignedClass: -1
--
molecule: C=CC[C@]1(C(=O)NCCCOC)N=C(c2ccc(OCCCO)cc2)O[C@H]1c1ccccc1
assignedClass: 1

Could you verify whether the entry O=C1C2C=CC(C(O)c3cccc(O)c3)N(Nc3ccccc3F)C2C(=O)N1c1ccccc1 (centres undefined) shows z-score of no less than 0.02?
-1

Kindly determine if z-score recorded for C=CCC(OC(C)=O)[C@@H]1[C@@H](N(Cc2ccc(-c3cccc(C(F)(F)F)c3)o2)C(=O)c2cccc3ccccc23)c2cc(OCCCO)ccc2N1C(=O)c1ccc2ccccc2c1 (some centres undefined) is above or exactly 0.02.
-1

Form field: z-score at least 0.02? Entry: COC(=O)C1=CC(CCCO)=CC(c2ccc(CN3CCCC3)cc2)N(Cc2sc3ccccc3c2Cl)C=C1C(=O)OC (centres undefined)
-1

Check this molecule for z-score at or above 0.02: "COCCOC(=O)N1C(=O)[C@@]2(c3cc(C#CCCO)ccc31)[C@H](C(=O)N1CCc3cc(OC)c(OC)cc3C1)[C@H]1C(=O)O[C@H](c3ccccc3)[C@H](c3ccccc3)N1[C@@H]2c1ccccc1OCCO"
1

Could you please find out whether CN1C(=O)C2C(C1=O)C1C=C(c3ccc(CO)cc3)C2C(c2cccs2)N1C (centres undefined) has z-score that meets 0.02 or exceeds it?
-1

Test whether the molecule "NC(=O)NCC#Cc1ccc2c(c1)[C@]1(C(=O)N2)[C@H](C(=O)Nc2nc3ccccc3s2)[C@H]2C(=O)O[C@H](c3ccccc3)[C@H](c3ccccc3)N2[C@@H]1c1ccc(OCCO)cc1" records z-score of 0.02 or higher.
1

For this molecule, is measured z-score 0.02 or higher? "COc1ccc(CCNC(=O)[C@@]2(Sc3ccc(C)cc3)CC(=O)N(C(C)C)[C@@H]2c2ccc(CO)cc2)cc1"
-1

Determine whether measured z-score meets or exceeds 0.02 for C=CCC(OC(C)=O)[C@@H]1[C@@H](N(Cc2ccc(-c3cccc(C(F)(F)F)c3)o2)C(=O)Cc2ccc(F)cc2)c2cc(OCCCO)ccc2N1C(=O)c1ccc2ccccc2c1 (some centres undefined)
1

# bool: z-score of "CCCCC(=C=CC[C@@H](O)c1cccc(OCCO)c1)C[C@@H](O)COCc1ccccc1" >= 0.02
1

Check if z-score >= 0.02 (inclusive). Item: "[N-]=[N+]=NCc1ccccc1C[C@]1(C(=O)N2CCCCC2)N=C(c2ccc(OCCCO)cc2)O[C@H]1c1ccccc1"
-1

State whether the measured z-score reaches 0.02, counting equality as reaching it, for "COC(=O)[C@@]1(Cc2ccc(F)cc2)[C@H]2c3cc(C(=O)N(C)C)n(CCO)c3C[C@H]2CN1C(=O)c1ccccc1"
1

# credit: PubChem BioAssay
